All values here come from PubChem BioAssay (NCI).

Test system: HCT-116 colon
Experiment: NCI-60 one-dose screen, 48 h
Conditions: 10 µM unless noted
This is part of a sample that, as a whole, favours compounds with a hit. Of some 83,000 tested, about 20% had one in any assay. Activity calls are given as the source filed them. Rule for the calls: active = growth percent below 10; inactive = the rest.
Log the outcome using a class from active, inactive

Prompt line: What was the test verdict on COc1cccc(/C=N/NC(=O)c2cnn3c2NC(c2ccccc2)C3)c1Oc1ccccc1 (stereo unspecified) ?
Response line: inactive

Prompt line: What was the test verdict on Cc1nn(-c2ccccc2)c(Oc2c(Cl)cccc2Cl)c1/C=N/N=c1\sc2ccccc2n1C ?
Response line: inactive

Prompt line: What was the test verdict on Nc1nc(Nc2ccccc2SSc2ccccc2Nc2nc(N)nc(-c3ccc(C(F)(F)F)cc3)n2)nc(-c2ccc(C(F)(F)F)cc2)n1 ?
Response line: inactive

Prompt line: What was the test verdict on Cc1cc(C)c(S(=O)(=O)Oc2ccccc2[N+](=O)[O-])c(C)c1 ?
Response line: inactive

Prompt line: What was the test verdict on CC(Sc1nc2sc3c(c2c(=O)n1-c1ccc(Cl)cc1)CCCC3)C(=O)Nc1nc(-c2ccc(Br)cc2)cs1 (stereo unspecified) ?
Response line: inactive

Prompt line: What was the test verdict on CCN(CC)CCCC(C)Nc1cc(O)cc2cccnc12 (stereo unspecified) ?
Response line: inactive

Prompt line: What was the test verdict on CC(=O)Nc1cccc(-c2ccc3c(c2)NC(=O)/C3=C\c2ccc[nH]2)c1 ?
Response line: inactive

Prompt line: What was the test verdict on CCCCOc1ccc(/C(C)=N/Nc2cc(C)nc3ccc(Br)cc23)cc1 ?
Response line: inactive

Prompt line: What was the test verdict on COc1cc(/C=N/O)nc(-c2ccccn2)c1 ?
Response line: inactive

Prompt line: What was the test verdict on COc1cc2nc(-c3ccc(Cl)cc3)cc(OCCCN3CCC(O)CC3)c2cc1OC ?
Response line: inactive

Prompt line: What was the test verdict on O=C(O)c1ccc(NCc2cn(-c3ccc(C(F)(F)F)cc3)nc2-c2ccc(C(=O)O)cc2)cc1 ?
Response line: inactive

Prompt line: What was the test verdict on COc1ccc(/C=C/c2nc(Nc3ccc(S(=O)(=O)Nc4cc(C)on4)cc3)c3ccccc3n2)cc1 ?
Response line: inactive

Prompt line: What was the test verdict on Cc1cc2cc3ccc(N(C)C)cc3nc2cc1N ?
Response line: active

Prompt line: What was the test verdict on COc1cc2nc(-c3ccc(Cl)cc3)cc(OCCCN3CCCCC3)c2cc1OC ?
Response line: inactive

Prompt line: What was the test verdict on O=C(C[n+]1cccc2ccccc21)c1ccc(O)c(O)c1 ?
Response line: active

Prompt line: What was the test verdict on COc1ccc(C(=O)CSc2nc(-c3cc(OC)ccc3OC)cc(-c3ccc(Cl)cc3)c2C#N)cc1 ?
Response line: inactive
